- System: 772245-204-R-J1-PDC complex spheroid growth
- assay procedure: Anticancer human tumor 772245-204-R-J1-PDC patient-derived rhabdomyosarcoma cell line growth inhibition [Asc]
- condition notes: second compound 3.16 µM; first compound 0.01 µM; active compounds read low
endpoint label: viability, T/C (%)
Express it in %; write the number only.

## Task Request the reported viability, T/C associated with CCN1CCN(Cc2ccc(Nc3ncc(F)c(-c4cc(F)c5nc(C)n(C(C)C)c5c4)n3)nc2)CC1 + Cc1c(S(C)(=O)=O)c(-c2cc(F)cc(N3CCN(c4ccc(NS(=O)(=O)c5ccc(NC(CCN6CCC(C(=O)OCCCP(=O)(O)O)CC6)CSc6ccccc6)c(S(=O)(=O)C(F)(F)F)c5)cc4)CC3)c2)c(-c2ccc(Cl)cc2)n1C(C)C
## Result 42.5

## Task Request the reported viability, T/C associated with COc1c(OCCCN2CCOCC2)ccc2c3n(c(=NC(=O)c4cnc(N)nc4)nc12)CCN3 + Cc1c(S(C)(=O)=O)c(-c2cc(F)cc(N3CCN(c4ccc(NS(=O)(=O)c5ccc(NC(CCN6CCC(C(=O)OCCCP(=O)(O)O)CC6)CSc6ccccc6)c(S(=O)(=O)C(F)(F)F)c5)cc4)CC3)c2)c(-c2ccc(Cl)cc2)n1C(C)C
## Result 56.1

## Task Request the reported viability, T/C associated with Cn1ncnc1[C@H]1c2n[nH]c(=O)c3cc(F)cc(c23)N[C@@H]1c1ccc(F)cc1 + Cc1c(S(C)(=O)=O)c(-c2cc(F)cc(N3CCN(c4ccc(NS(=O)(=O)c5ccc(NC(CCN6CCC(C(=O)OCCCP(=O)(O)O)CC6)CSc6ccccc6)c(S(=O)(=O)C(F)(F)F)c5)cc4)CC3)c2)c(-c2ccc(Cl)cc2)n1C(C)C
## Result 19.7

## Task Request the reported viability, T/C associated with O=C(c1ccc(F)c(F)c1Nc1ccc(I)cc1F)N1CC(O)([C@@H]2CCCCN2)C1 + Cc1c(S(C)(=O)=O)c(-c2cc(F)cc(N3CCN(c4ccc(NS(=O)(=O)c5ccc(NC(CCN6CCC(C(=O)OCCCP(=O)(O)O)CC6)CSc6ccccc6)c(S(=O)(=O)C(F)(F)F)c5)cc4)CC3)c2)c(-c2ccc(Cl)cc2)n1C(C)C
## Result 60.7

---

- Tested on: 772245-204-R-J1-PDC complex spheroid growth
- assay procedure: Anticancer human tumor 772245-204-R-J1-PDC cell line growth inhibition [Asc];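 further: compound exposure lasted seven days; 100% = DMSO vehicle control viability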
- condition notes: second compound 10 µM; first compound 1 µM; active compounds read low
endpoint label: viability, T/C

## Task Request the reported viability, T/C associated with CCN1CCN(Cc2ccc(Nc3ncc(F)c(-c4cc(F)c5nc(C)n(C(C)C)c5c4)n3)nc2)CC1 + Cc1c(S(C)(=O)=O)c(-c2cc(F)cc(N3CCN(c4ccc(NS(=O)(=O)c5ccc(NC(CCN6CCC(C(=O)OCCCP(=O)(O)O)CC6)CSc6ccccc6)c(S(=O)(=O)C(F)(F)F)c5)cc4)CC3)c2)c(-c2ccc(Cl)cc2)n1C(C)C
## Result 3.23%

## Task Request the reported viability, T/C associated with C=C(F)C(=O)N1CCN(c2nc(OCC3CCCN3C)nc3c2CCN(c2cccc4cccc(Cl)c24)C3)CC1CC#N (stereo not drawn) + Cc1c(S(C)(=O)=O)c(-c2cc(F)cc(N3CCN(c4ccc(NS(=O)(=O)c5ccc(NC(CCN6CCC(C(=O)OCCCP(=O)(O)O)CC6)CSc6ccccc6)c(S(=O)(=O)C(F)(F)F)c5)cc4)CC3)c2)c(-c2ccc(Cl)cc2)n1C(C)C
## Result 17.6%

## Task Request the reported viability, T/C associated with COc1c(OCCCN2CCOCC2)ccc2c3n(c(=NC(=O)c4cnc(N)nc4)nc12)CCN3 + Cc1c(S(C)(=O)=O)c(-c2cc(F)cc(N3CCN(c4ccc(NS(=O)(=O)c5ccc(NC(CCN6CCC(C(=O)OCCCP(=O)(O)O)CC6)CSc6ccccc6)c(S(=O)(=O)C(F)(F)F)c5)cc4)CC3)c2)c(-c2ccc(Cl)cc2)n1C(C)C
## Result 3.06%

## Task Request the reported viability, T/C associated with O=C(c1ccc(F)c(F)c1Nc1ccc(I)cc1F)N1CC(O)([C@@H]2CCCCN2)C1 + Cc1c(S(C)(=O)=O)c(-c2cc(F)cc(N3CCN(c4ccc(NS(=O)(=O)c5ccc(NC(CCN6CCC(C(=O)OCCCP(=O)(O)O)CC6)CSc6ccccc6)c(S(=O)(=O)C(F)(F)F)c5)cc4)CC3)c2)c(-c2ccc(Cl)cc2)n1C(C)C
## Result 4.51%

## Task Request the reported viability, T/C associated with CNC(C)C(=O)NC1CN(S(=O)(=O)c2cccc(S(=O)(=O)N3CCC4CCC(C(=O)NC(c5ccccc5)c5ccccc5)N4C(=O)C(NC(=O)C(C)NC)C3)c2)CCC2CCC(C(=O)NC(c3ccccc3)c3ccccc3)N2C1=O (stereo not drawn) + Cc1c(S(C)(=O)=O)c(-c2cc(F)cc(N3CCN(c4ccc(NS(=O)(=O)c5ccc(NC(CCN6CCC(C(=O)OCCCP(=O)(O)O)CC6)CSc6ccccc6)c(S(=O)(=O)C(F)(F)F)c5)cc4)CC3)c2)c(-c2ccc(Cl)cc2)n1C(C)C
## Result 22.3%

## Task Request the reported viability, T/C associated with C#Cc1c(F)ccc2cc(O)cc(-c3ncc4c(N5CC6CCC(C5)N6)nc(OCC56CCCN5CC(F)C6)nc4c3F)c12 (stereo not drawn) + Cc1c(S(C)(=O)=O)c(-c2cc(F)cc(N3CCN(c4ccc(NS(=O)(=O)c5ccc(NC(CCN6CCC(C(=O)OCCCP(=O)(O)O)CC6)CSc6ccccc6)c(S(=O)(=O)C(F)(F)F)c5)cc4)CC3)c2)c(-c2ccc(Cl)cc2)n1C(C)C
## Result 58.3%

## Task Request the reported viability, T/C associated with C=CC(=O)N1CCN(c2nc(=O)n(-c3c(C)ccnc3C(C)C)c3nc(-c4c(O)cccc4F)c(F)cc23)C(C)C1 (stereo not drawn) + Cc1c(S(C)(=O)=O)c(-c2cc(F)cc(N3CCN(c4ccc(NS(=O)(=O)c5ccc(NC(CCN6CCC(C(=O)OCCCP(=O)(O)O)CC6)CSc6ccccc6)c(S(=O)(=O)C(F)(F)F)c5)cc4)CC3)c2)c(-c2ccc(Cl)cc2)n1C(C)C
## Result 30.6%

## Task Request the reported viability, T/C associated with O=C(c1cc(Cc2n[nH]c(=O)c3ccccc23)ccc1F)N1CCN(C(=O)C2CC2)CC1 + Cc1c(S(C)(=O)=O)c(-c2cc(F)cc(N3CCN(c4ccc(NS(=O)(=O)c5ccc(NC(CCN6CCC(C(=O)OCCCP(=O)(O)O)CC6)CSc6ccccc6)c(S(=O)(=O)C(F)(F)F)c5)cc4)CC3)c2)c(-c2ccc(Cl)cc2)n1C(C)C
## Result 17.4%
